test: In vitro hydrolysis of functionalized phenolics in pH 7.4 buffer at reflux, monitored by TLC; assay type: physicochemical; settings: reflux temp. (100° C.); 500 mg compound in 50 ml pH 7.4 buffer solution; TLC against original phenolic as control
endpoint_name: time in which the functionalized compound was hydrolyzed to the starting phenolic compound (h)
API: value field is a number in h; no unit string.

INSERT INTO assay_data (molecule, value_reported) VALUES
  ('CC(Oc1ccc(N)cc1)C(=O)OCCOC(=O)C(C)Oc1ccc(N)cc1 (stereo not shown)', 40),
  ('COC(=O)COC(=O)COc1ccc(N)cc1', 3),
  ('Nc1ccc(OCC(=O)OCCOC(=O)COc2ccc(N)cc2)cc1', 11.5);

Moving on to another molecule below.
Quick check: time in which the functionalized compound was hydrolyzed to the starting phenolic compound of COC(=O)COC(=O)COc1ccc(NC(C)=O)cc1 ?
8
